test_details: in vitro
run_conditions: human, hela cells, % viability
measured_property: viability at 28.5 h, 10 µM (%)
Answer in %, number only, no unit symbol.

compound	measured_property	observed
O=C1N/C(=N/N=C\c2cccc([N+](=O)[O-])c2)SC1Cc1ccc(Br)cc1 (centres unmarked)	viability at 28.5 h, 10 µM	101
CS(=O)(=O)N1CC2(CCN(C(=O)[C@@H](N)COCc3ccccc3)CC2)c2ccccc21 [CBK022597C]	viability at 28.5 h, 10 µM	104
Cc1nc(C2CCCN(C(=O)C3CCC3)C2)nc2c1CCCN2Cc1ccccc1 (centres unmarked)	viability at 28.5 h, 10 µM	78.2
S=c1nc(-c2ccco2)n(Cc2ccccc2)c(=S)n1/C(=N/Cc1ccccc1)c1ccco1	viability at 28.5 h, 10 µM	108
COc1ccc(CN2Cc3nc[nH]c3C[C@H]2C(=O)NCc2ccccc2)c2ccccc12	viability at 28.5 h, 10 µM	86.5
CC(=O)c1ccc(NC(=O)[C@@]2(CC(=O)O)CC(c3ccc(F)cc3)=NO2)cc1	viability at 28.5 h, 10 µM	85
Cc1ccc(C(=O)Nc2noc3ccccc23)cc1	viability at 28.5 h, 10 µM	88.9

Let's switch to this compound now.
For the compound shown here, `Cn1c(=O)n(C)c2cc(NC3=NS(=O)(=O)c4ccccc43)ccc21` , give the reported viability at 28.5 h, 10 µM.
91.9

----------
test_details: in vitro
run_conditions: human, hela cells, % viability
measured_property: viability at 28.5 h, 10 µM (%)
I only need the number, in %, no unit after it.

compound	viability at 28.5 h, 10 µM / %
Cc1n[nH]c(C)c1CNC(=O)c1cccc2c(C)c(C)[nH]c12 [CBK283068]	88.9
O=C(O)c1cc(C=Cc2ccc(Cl)c([N+](=O)[O-])c2)nc2ccccc12 [CBK297495]	104
CC(=O)Nc1ccc(S(=O)(=O)N2CCC(N3CCOCC3)CC2)cc1 [CBK264653G]	116
Cc1cc(C2CCCCCN2S(=O)(=O)c2ccc(F)cc2)on1 (centres unmarked) [CBK284668]	82.2
CCCC(=O)NCc1ccc(-c2cc(CN(C)C)n(C)n2)cc1 [CBK282007]	98.4
O=C(NC1CCCC1)c1ccc2c(c1)C(=O)N(CC1CCCO1)C2=O (centres unmarked) [CBK269777]	103
Cc1nn(CC(=O)N2CCCC2)c(=O)c2cc3ccsc3n12 [CBK284057]	88.7
OC1(c2cccnc2F)CCN(Cc2ccc(F)cc2F)CC1 [CBK284369]	82.6
COc1ccc(CCNCC2OCCCc3cc(OC)c(OC)cc32)cc1OC (centres unmarked) [CBK012466C]	94
O=C1CCc2cc(S(=O)(=O)NC(c3ccccc3)c3ccccc3)cc3c2N1CCC3 [CBK294418]	95.6

What value of viability at 28.5 h, 10 µM has been reported for the following compound? Cc1nc2cc(C(=O)N(C)CCN3CCCCC3)ccc2n1C [CBK281854]
78.3

Repeat with Cc1cc(S(=O)(=O)N2CCN(c3ccc(Cl)cc3)CC2)c(C)cc1Cl [CBK044965]
114

Proceed to CCNc1nnc(-c2c(Cl)c(C)nn2C)s1 [CBK288014]
92.5

Would you kindly repeat that for CN1CCN(NC(=O)c2cccc(COc3ccccc3Cl)c2)CC1 [CBK265765] ?
99.2

Continue with O=C(NCCOc1ccc(F)cc1)c1cccc(-n2cccn2)c1 [CBK281596]
101

What do we get for O=C(O)c1ccc(-n2nnnc2Sc2nc([N+](=O)[O-])nn2Cc2ccccc2F)cc1 [CBK268498] ?
91.5

Same question for FC(F)(F)Sc1ccc(COc2cccc3cccnc23)cc1 [CBK002776] please.
94.5

One more compound: Cc1nc(C)c(CCC(=O)N2CCCCC2Cn2cccn2)c(=O)[nH]1 (centres unmarked) [CBK305310]
102

# iterate: CCC(CC)C(=O)N(C)c1c(C)nc2ccc(C(=O)Nc3cccc(NS(C)(=O)=O)c3)cn12 [CBK146526]
105

Now the same for CCN1CCN(C(=O)c2csnn2)CC1 [CBK200376]
92.5

Now this one: O=C(CSc1nnc(-c2cccs2)n1-c1ccccc1)Nc1ccnc2ccccc12 [CBK267487]
94.4

----------
test_details: in vitro
run_conditions: human, hela cells, % viability
Below is a list of entries, each paired with its recorded viability at 28.5 h, 10 µM value.
Just the number please, in %, no unit attached.

Some solved entries appear below for comparison.
compound	viability at 28.5 h, 10 µM, %
O=C(CSc1n[nH]c(=O)n1C1CCCCC1)NCc1ccc(N2CCCC2=O)cc1	105
COC(=O)c1ccc2c(=O)n(CC(C)O)c(SC3CCOC3=O)nc2c1 (centres unmarked)	84.7
Cc1nnc(SCC(=O)Nc2nonc2C)s1	98.9
COc1ccc2c(c1)N1CCCN=C1N2C [CBK011358C]	90.8
COC(=O)C1=C(C)N(CCc2ccccc2)C(=O)C1(NC(=O)c1ccccc1)C(F)(F)F (centres unmarked)	86

Continue with the compound presented below.
# query: viability at 28.5 h, 10 µM of entry `COc1cc(CN2CCN(C(=O)c3ccccc3)CC2)cc(OC)c1O`
94.3

----------
test_details: in vitro
run_conditions: human, hela cells, % viability
measured_property: viability at 28.5 h, 10 µM

molecule	viability at 28.5 h, 10 µM
Cc1ccc(C(C)C)c(OCC(=O)Nc2ccc(F)c([N+](=O)[O-])c2)c1	91.7%
O=C(NCC(CO)Cc1ccccn1)c1ccc2cc[nH]c2c1 (stereo not shown)	81.6%
O=C(COc1ccc(Cl)cc1)NNC(=O)Cc1cccc2ccccc12	91.4%
Cc1nc(C)c(C(=O)NC2CCCNC2=O)s1 (stereo not shown)	86.8%
CC1(C)CC(=O)C(C(=S)Nc2ccc(F)cc2)=C(NCc2ccc3c(c2)OCO3)C1	97.5%
O=C(COc1ccc2ccccc2c1)OCC(=O)c1ccc([N+](=O)[O-])cc1	88.2%
O=C(C1CCN(Cc2ccc(F)cc2)CC1)N1CCN(C/C=C/c2ccccc2)CC1 [CBK264325G]	96.5%
COc1ccc(CN2CCC(N3CCCCCC3)CC2)cc1OC [CBK264721G]	90.8%

Using the record for `O=C(NCCc1cc2ccccc2[nH]1)Nc1cccc2ccccc12` , report its viability at 28.5 h, 10 µM.
106%

Also COc1ccc2c(c1)CC1(CCC(NCCCC(=O)c3ccc(F)cc3)CC1)C2 (stereo not shown) [CBK016054C] ?
87.1%

Proceed to `COc1cc(NC(=O)Nc2ccc3ccc(Cl)nc3n2)cc(OC)c1OC`
82.9%

Continue with `CC(=O)Nc1ccc(CN2Cc3nc[nH]c3C[C@H]2c2nc(-c3ccc(F)cc3)no2)cc1`
89.7%

Another molecule to look at: `Cc1cc2c(cc3c(=O)n(CC(=O)OC(C)C)nc(C)n32)s1`
98.6%

Next molecule up: O=C(NC(c1ccc(Cl)cc1)c1cnccn1)C1CCN(C(=O)c2ccccc2)CC1 (stereo not shown)
109%

Thanks! And O=c1[nH]c(=O)c2cc(S(=O)(=O)N3CCCC(c4ccccc4)C3)ccc2[nH]1 (stereo not shown) ?
106%

Do the same for O=C1NC(=O)C(CC(=O)N2CCC3(CCCNC3)C2)N1 (stereo not shown) [CBK153232C] please
79.2%

----------
test_details: in vitro
run_conditions: human, hela cells, % viability
Label Criterion met when viability at 28.5 h, 10 µM < 90%; otherwise Criterion not met.

molecule	class_label
Brc1ccc(-c2nnco2)cc1	Criterion met

Does the reported viability at 28.5 h, 10 µM of `Cc1cc(C)c(OCCNC(=O)c2ccccc2Sc2ccccc2C#N)c(C)c1` stay below 90%?
Criterion not met

Item: `COc1ccc(Oc2ccc(C=Cc3nc4sc(C(=O)O)c(C)c4c(=O)[nH]3)cc2[N+](=O)[O-])cc1`
Criterion not met

Further, for `c1ccc(CCNc2nc(-c3cccs3)cn3ccnc23)nc1` ?
Criterion not met

Further, for `CCNC(=O)N1C[C@@H]2OCC(=O)N(Cc3ccccc3)[C@@H]2C1` ?
Criterion not met

Entry to check: `CN(Cc1nccn1C)c1nccc(N2CCN[C@H]3CS(=O)(=O)C[C@H]32)n1`
Criterion met

Moving on to the next molecule: CN(C)C(=O)CN1C(=O)CC2(C1=O)C(=O)N(CC(=O)O)c1ccc(F)cc12 (stereo not shown)
Criterion not met

Ok, now CC(=O)Nc1cccc(-c2nccnc2NCC(c2cccnc2)N(C)C)c1 (stereo not shown)
Criterion not met

Thanks! And `Cc1nn2c(C)c(C(=O)Nc3ccccc3)nnc2c1-c1ccccc1` ?
Criterion met

Here is the next molecule: `c1coc(CNc2nccnc2-c2cccs2)c1`
Criterion met

Field entry: `COc1ccc(C2(CN3CCC(NC(C)=O)CC3)CCCC2)cc1`
Criterion met

// repeat for `Oc1ccc(CN2CCN(c3ncccn3)CC2)cc1` and report
Criterion not met

Query `CC(C)(C)c1ccc(S(=O)(=O)N/N=C\c2ccc(Cl)cc2Cl)cc1` next
Criterion met

Now give it for `CC(=O)c1ccc(-c2nccnc2NCc2cccnc2)s1` too.
Criterion not met
